Reference source: ChEMBL document CHEMBL1153847

# maps each entry to its IC50
System: Bel-7402
Experiment: Cytotoxicity against human Bel7402 cells by MTT assay
Type: functional, cell-based

Reference set, count: 3
compound="COc1ccc2c(c1)[nH]c1c(C)nccc12 [HARMINE]" recorded_result="54 µM"
compound=CCn1c2ccccc2c2cc(C(=O)O)nc(-c3cc(OC)c(OC)c(OC)c3)c21 recorded_result="61.4 µM"
compound=CCOC(=O)c1cc2c([nH]c3ccccc32)c(-c2cc(OC)c(OC)c(OC)c2)n1 recorded_result="> 100 µM"

The compound `COc1cc(-c2nc(C=O)cc3c4ccccc4n(CCCc4ccccc4)c23)cc(OC)c1OC` showed IC50 equal to > 100 µM

====

Reported pIC50 values for a set of compounds
Tested on: Bel-7402
Experiment: Cytotoxicity against human Bel7402 cells by MTT assay
Type: functional, cell-based
pIC50: −log10 of the molar value.

The following compounds have reported results that may help.
line_notation=COc1cc(-c2nc(CO)cc3c4ccccc4n(CCCc4ccccc4)c23)cc(OC)c1OC recorded_result="< 4.00"
line_notation=COc1cc(-c2nc(CO)cc3c4ccccc4n(C)c23)cc(OC)c1OC recorded_result="< 4.00"
line_notation=CCCCn1c2ccccc2c2cc(C=O)nc(-c3cc(OC)c(OC)c(OC)c3)c21 recorded_result="< 4.00"
line_notation=CCCCn1c2ccccc2c2cc(CO)nc(-c3cc(OC)c(OC)c(OC)c3)c21 recorded_result="< 4.00"
line_notation=CCCCn1c2ccccc2c2cc(C(=O)NCCO)nc(-c3cc(OC)c(OC)c(OC)c3)c21 recorded_result="< 4.00"

pIC50 recorded for this compound, `CCOC(=O)c1cc2c3ccccc3n(CCCc3ccccc3)c2c(-c2cc(OC)c(OC)c(OC)c2)n1` , is < 4.00

For `CCn1c2ccccc2c2cc(C=O)nc(-c3cc(OC)c(OC)c(OC)c3)c21` the compound record lists pIC50 as < 4.00

====

Tested on: Bel-7402
Test: Cytotoxicity against human Bel7402 cells by MTT assay
Assay type: functional, cell-based
pIC50: −log10 of the molar value.
Entries and their pIC50

Please review the entries below; each comes with its answer.
line_notation=CCOC(=O)c1cc2c3ccccc3n(CC)c2c(-c2cc(OC)c(OC)c(OC)c2)n1 recorded_result="< 4.00"
line_notation=COc1cc(-c2nccc3c2[nH]c2ccccc23)cc(OC)c1OC recorded_result=4.36
line_notation=COc1cc(-c2nc(C(=O)NCCO)cc3c4ccccc4n(C)c23)cc(OC)c1OC recorded_result="< 4.00"

Value sought: pIC50, system Bel-7402, item `CCCCn1c2ccccc2c2cc(C(=O)O)nc(-c3cc(OC)c(OC)c(OC)c3)c21` . Result: < 4.00

Query `COc1cc(-c2nc(C=O)cc3c4ccccc4n(C)c23)cc(OC)c1OC` on Bel-7402; pIC50 returned: < 4.00

====

System: Bel-7402
Test: Cytotoxicity against human Bel7402 cells by MTT assay
Format: functional, cell-based
Experimental Readout: IC50

line_notation=CCn1c2ccccc2c2cc(C(=O)NCCO)nc(-c3cc(OC)c(OC)c(OC)c3)c21 experimental_readout=IC50 recorded_result="> 100 µM"
line_notation=CCn1c2ccccc2c2cc(CO)nc(-c3cc(OC)c(OC)c(OC)c3)c21 experimental_readout=IC50 recorded_result="> 100 µM"
line_notation=CCCCn1c2ccccc2c2ccnc(-c3cc(OC)c(OC)c(OC)c3)c21 experimental_readout=IC50 recorded_result="42.5 µM"
line_notation=COc1cc(-c2nccc3c4ccccc4n(C)c23)cc(OC)c1OC experimental_readout=IC50 recorded_result="91.1 µM"

`CCn1c2ccccc2c2ccnc(-c3cc(OC)c(OC)c(OC)c3)c21` on Bel-7402 gives IC50 = 43.9 µM

# value of IC50, Bel-7402, item `COc1cc(-c2nc(C(=O)O)cc3c4ccccc4n(C)c23)cc(OC)c1OC` = > 100 µM

Assay Bel-7402, sample `CCCCn1c2ccccc2c2cc(C(=O)OCC)nc(-c3cc(OC)c(OC)c(OC)c3)c21` , IC50 read: > 100 µM

Tested on Bel-7402: `CCOC(=O)c1cc2c3ccccc3n(C)c2c(-c2cc(OC)c(OC)c(OC)c2)n1` . Observed IC50: > 100 µM
